Target: Histone deacetylase 3 (Homo sapiens)
Sequence (O15379 whole entry): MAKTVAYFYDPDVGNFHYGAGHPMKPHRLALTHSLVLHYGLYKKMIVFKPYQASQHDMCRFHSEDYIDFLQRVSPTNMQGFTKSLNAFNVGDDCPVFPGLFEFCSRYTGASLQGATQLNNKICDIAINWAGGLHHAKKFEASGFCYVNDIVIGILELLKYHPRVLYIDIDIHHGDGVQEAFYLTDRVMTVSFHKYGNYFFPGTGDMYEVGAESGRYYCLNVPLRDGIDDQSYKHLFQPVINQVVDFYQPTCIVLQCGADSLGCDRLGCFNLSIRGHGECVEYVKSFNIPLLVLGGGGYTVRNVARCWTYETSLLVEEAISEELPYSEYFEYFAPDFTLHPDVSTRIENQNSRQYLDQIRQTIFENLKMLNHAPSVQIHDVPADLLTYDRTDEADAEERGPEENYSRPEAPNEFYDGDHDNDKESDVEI
measuredAttribute: IC50 (µM)
Use µM as the unit, but write only the number.

// assay Histone deacetylase 3 (Homo sapiens), entry CCN1CCN(C(c2cccnc2)c2cc(Cl)c3cccnc3c2O)CC1 (stereo unspecified) , IC50 value = 65.1

###

Target: Histone deacetylase 8 [R223M] (Homo sapiens, UniProt Q9BY41, R223M)
Sequence (Q9BY41 whole entry R223W): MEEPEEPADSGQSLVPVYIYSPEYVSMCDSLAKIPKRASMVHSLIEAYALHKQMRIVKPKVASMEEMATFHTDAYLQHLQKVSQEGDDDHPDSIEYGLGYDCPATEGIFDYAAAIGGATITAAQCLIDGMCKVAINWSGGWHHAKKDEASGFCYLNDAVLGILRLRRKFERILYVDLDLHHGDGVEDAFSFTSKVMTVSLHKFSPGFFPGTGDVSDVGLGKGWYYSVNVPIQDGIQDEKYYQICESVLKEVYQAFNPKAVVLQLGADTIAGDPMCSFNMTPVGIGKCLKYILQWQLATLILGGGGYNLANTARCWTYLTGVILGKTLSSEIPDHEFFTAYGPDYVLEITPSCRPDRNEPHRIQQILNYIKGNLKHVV
Experiment: HDAC Enzymatic Assay
Details: pH 7.4
measuredAttribute: pIC50
Answer as the number alone; pIC50 is minus log10 of concentration in mol/L.

Entry CCN1CCN(C(c2cccnc2)c2cc(Cl)c3cccnc3c2O)CC1 (stereo unspecified) ; pIC50 = 5.41

###

Target: Histone deacetylase 7 (Homo sapiens, UniProt Q8WUI4)
Sequence (Q8WUI4 whole entry): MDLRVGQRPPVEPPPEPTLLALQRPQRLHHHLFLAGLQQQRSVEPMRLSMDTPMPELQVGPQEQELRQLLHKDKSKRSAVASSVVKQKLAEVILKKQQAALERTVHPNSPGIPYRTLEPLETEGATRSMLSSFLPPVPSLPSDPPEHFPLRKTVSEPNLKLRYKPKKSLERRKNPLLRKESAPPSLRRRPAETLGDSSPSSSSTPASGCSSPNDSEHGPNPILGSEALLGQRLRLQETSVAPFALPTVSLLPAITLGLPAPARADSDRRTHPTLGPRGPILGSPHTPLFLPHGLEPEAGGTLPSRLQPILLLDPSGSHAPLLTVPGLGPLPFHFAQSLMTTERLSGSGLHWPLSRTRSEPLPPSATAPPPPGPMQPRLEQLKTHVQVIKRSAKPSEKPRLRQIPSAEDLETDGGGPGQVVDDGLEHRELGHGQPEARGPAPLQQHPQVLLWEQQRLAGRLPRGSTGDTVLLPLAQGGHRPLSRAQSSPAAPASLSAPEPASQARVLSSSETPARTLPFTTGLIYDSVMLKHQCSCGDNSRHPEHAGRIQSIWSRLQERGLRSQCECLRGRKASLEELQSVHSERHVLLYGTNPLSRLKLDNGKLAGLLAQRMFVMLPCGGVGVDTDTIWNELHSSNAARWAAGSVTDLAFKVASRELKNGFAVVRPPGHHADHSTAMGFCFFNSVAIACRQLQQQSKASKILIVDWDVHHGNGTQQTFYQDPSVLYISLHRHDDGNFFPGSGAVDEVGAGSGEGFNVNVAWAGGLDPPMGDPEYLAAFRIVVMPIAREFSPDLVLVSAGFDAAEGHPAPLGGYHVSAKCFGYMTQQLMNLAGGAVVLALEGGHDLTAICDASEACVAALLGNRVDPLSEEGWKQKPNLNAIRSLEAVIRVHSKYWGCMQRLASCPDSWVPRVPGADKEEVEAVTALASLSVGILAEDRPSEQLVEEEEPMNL
measuredAttribute: IC50 (µM)
Use µM as the unit, but write only the number.

// assay Histone deacetylase 7 (Homo sapiens, UniProt Q8WUI4), entry CCN1CCN(C(c2cccnc2)c2cc(Cl)c3cccnc3c2O)CC1 (stereo unspecified) , IC50 value = 8.44
